tested on: Hs-578T; test: NCI tumour cell line growth inhibition, 48 h
Activity calls are given as the source filed them. Cut-off read from the data, not from the text of the source: active = GI50 up to about 1.1 µM and inactive = higher.
// allowed return values: label 1 for active, label 0 for inactive

Sample answers from the record:
CC(=O)OC(CCC1(C)OC1COc1ccc(CCNC(=O)C=C(C)C)cc1)C(C)(C)OC(C)=O (centres undefined) :: label 0
CC(NC(=O)NC(C)(C)C)NC(=O)C(N)CC(=O)O (centres undefined) :: label 0
CN(C)c1ccc(/C=N/n2c(-c3ccccc3)nc3ccccc3c2=O)cc1 :: label 0
Cc1cc([C@H](C#N)c2nc3ccccc3[nH]2)nc(Cl)n1 :: label 0
C[n+]1c2ccccc2c(C(=O)Nc2ccc(S(=O)(=O)N=C(N)N)cc2)c2ccccc21 :: label 0
Cc1c2ccc3ccccc3c2c[n+]2ccccc12 :: label 0

I'd appreciate the recorded outcome for O=C1Nc2ccc([N+](=O)[O-])cc2/C1=N/NC(=S)Nc1ccc([N+](=O)[O-])cc1 from this test.
label 0

Same thing, different compound: O=c1cc(N2CCCC2)[nH]c(=O)n1-c1cccc(Cl)c1
label 0

# iterate: COC1=CC(=O)C2=C(C1=O)[C@H]1CC[C@]3(C)[C@@H](O)CC[C@H]3[C@@H]1CC2
label 0

Repeat with CCOC(=O)/C=C1\c2ccccc2C(=O)N1CC(=O)OCC
label 0

Try CSC(SC)=C1CC(=O)Nc2ccccc2C1=O next.
label 0

And for O=C1OC2(c3ccccc31)c1cc(I)c(O)c(I)c1Oc1c2cc(I)c(O)c1I [ERYTHROSINE] ?
label 0

Here is the next compound: Cc1ccc(-n2cc(-c3ccc(Cl)cc3)c3c(N/N=C4\SCC(=O)N4C)ncnc32)cc1
label 0

Would you mind doing CC(=O)OC1C(C)OC(OC(=O)C2CCC3C(C2)OC2(CC(OC(=O)/C=C/c4ccccc4)C(C)CO2)C32CO2)C(OC2OC(C)C(O)C(OC(C)=O)C2O)C1O (centres undefined) as well?
label 1

----------
system: NCI-H460; assay: NCI tumour cell line growth inhibition, 48 h
Active and inactive are the calls of the source. Rule as the data show it: active = GI50 up to about 1.1 µM and inactive = higher.
Readout type: GI50

OCCNC1=Nc2ccc(Cl)cc2C(=S)N2CSC[C@@H]12 :: > 100 µM (inactive)
Cc1cc(-c2ccc(C(=O)O)[nH]2)on1 :: 40.6 µM (inactive)

Below: the item to evaluate.
Field request: GI50 | item: COCC1OC(S(=O)(=O)c2ccccc2)C(O)C(OC)C1OC (stereo not drawn)
> 100 µM (inactive)

----------
system: HCT-116; assay: NCI tumour cell line growth inhibition, 48 h
Calls of active or inactive are those of the source. Rule as the data show it: active = GI50 up to about 1.1 µM and inactive = higher.
Allowed answers: true (1) (active), false (0) (inactive)

Recorded test call requested for C/C(=N\Nc1nc2cc(C(F)(F)F)ccc2s1)c1ccccn1
true (1)

----------
test system: HOP-62; assay: NCI tumour cell line growth inhibition, 48 h
Active and inactive are the calls of the source. Cut-off read from the data, not from the text of the source: active = GI50 up to about 1.1 µM and inactive = higher.
Readout type: GI50

Some molecules with recorded GI50:
CC(C)=CCC[C@@H](C)C1=C(O)C(=O)C(C)=C(Nc2ccccc2F)C1=O :: 11.6 µM (inactive)
CC(=O)Oc1c(C)c(-c2ccccc2)c(C)c(-c2ccccc2)c1C(=S)c1ccccc1 :: > 100 µM (inactive)
COCC1OC(S(=O)(=O)c2ccccc2)C(O)C(OC)C1OC (stereo not given) :: > 100 µM (inactive)

For each of the molecules below, note its GI50.
1. C/C=C\C(CC(=O)NCCC1CN(S(=O)(=O)C(F)(F)F)c2ccccc21)CC(=O)OC (stereo not given)
2. C/C=C/CP(=O)(c1ccccc1)c1ccccc1

35.2 µM (inactive)
> 100 µM (inactive)

----------
Assay system HCT-15; read-out recorded as GI50.

c1cc(C[S+]2CCCC2)ccc1C[S+]1CCCC1 :: > 100 µM
COC(=O)/C=C(\C(=O)OC)C1C(=O)Oc2c(C)c(=O)c3ccccc3n21 (stereo unspecified) :: > 100 µM
COc1c(O)c2c3c(cc(C)cc3c1C(C)C)OC2 :: > 100 µM
CN(C)CC(CN(C)C)c1ccccn1 :: > 100 µM
O=C1CSSCC(=O)Nc2ccccc2N1 :: > 100 µM

Note: attention shifts to another entry.
Recorded GI50 for CN(C)CCN(c1ccccn1)c1ccccn1 , please?
> 100 µM

----------
test system: NCI-H23; assay: NCI tumour cell line growth inhibition, 48 h
The source made the active and inactive calls. Rule as the data show it: active = GI50 up to about 1.1 µM and inactive = higher.
Exercise: state measured GI50 for each of the compounds provided.

Some entries whose results are on file:
Oc1c(Br)c(-c2ccccc2)nc2ccccc12 :: 22.1 µM (inactive)
CCOC(=O)/C(=C/c1ccccn1)C(=O)c1ccccc1 :: 15.8 µM (inactive)
CCc1cc(C)cc2[n+]1CC=C2C.[O-][Cl+3]([O-])([O-])[O-] :: 66.1 µM (inactive)
O=C(O)c1c(-c2cccc3ccccc23)sc(-c2cccc3ccccc23)c1C(=O)O :: > 100 µM (inactive)
Cc1c(-c2ccccc2)c(C#N)c2nnn(C)c(=O)n12 :: > 100 µM (inactive)
CCOC(=O)C(C)Sc1nnc(COc2ccccc2OC)n1-c1ccccc1 (stereo not drawn) :: > 100 µM (inactive)

Record GI50 for all entries; do not skip any.
1. O=C1CCC2(CC1CC(Sc1ccccc1)Sc1ccccc1)OCCO2 (stereo not drawn)
2. c1ccc2c(c1)OCCOCCOc1ccccc1OCCO2
3. O=C(CSc1nnc[nH]1)C[P+](c1ccccc1)(c1ccccc1)c1ccccc1
4. O=C1NC2c3c(I)sc(I)c3/C(=N\O)C2O1 (stereo not drawn)

42.7 µM (inactive)
> 100 µM (inactive)
> 100 µM (inactive)
23.2 µM (inactive)

Quick request: GI50 for each listed item, please.
1. O=[N+]([O-])c1cc2c(c([N+](=O)[O-])c1)NCc1ccccc1O2
2. O=[N+]([O-])c1ncc(N(CCO)CCO)s1
3. CCCCOC(=O)NC(=O)c1cn(CCCOC(=O)CCCCCCCCC(=O)OCCCn2cc(C(=O)NC(=O)OCCCC)c(=O)n(C)c2=O)c(=O)n(C)c1=O
4. CCOC(=O)Cn1c2ccc(Br)cc2c2nc3ccccc3nc21
5. [O-][S+](Cc1cc2c(cc1Br)OCO2)c1ccccc1 (stereo not drawn)

["> 100 µM (inactive)", "41 µM (inactive)", "> 100 µM (inactive)", "> 100 µM (inactive)", "68.2 µM (inactive)"]

----------
system: M14; experiment: NCI tumour cell line growth inhibition, 48 h
The source made the active and inactive calls. Rule as the data show it: active = GI50 up to about 1.1 µM and inactive = higher.
Readout type: GI50

Field: example entries. Status: answers known.
Nc1ccc(Oc2ccc(C3(c4ccc(Oc5ccc(N)cc5)cc4)C4CC5C6CC7CC5C3C(C7)C6C4)cc2)cc1 :: 3.87 µM (inactive)
CCc1nnc(-n2c(C)nc3cc(Cl)ccc3c2=O)s1 :: 38.7 µM (inactive)
CC1(C)CCC2=C(O1)c1ccccc1/C(=N/c1ccc([N+](=O)[O-])cc1)C2=O :: 8.24 µM (inactive)
CCOC(=O)c1c(-c2ccc(O)c(OC)c2)c(C#N)c(=S)n(C2OC(CO)C(O)C(O)C2O)c1-c1ccccc1 (stereo not given) :: > 100 µM (inactive)

# context switch: different compound, same GI50
Entry under review: COc1ccc2c(c1)CCc1c(-c3noc4c3CCc3cc(OC)ccc3-4)noc1-2 . Reported GI50?
> 100 µM (inactive)

----------
test system: MDA-MB-435; experiment: NCI tumour cell line growth inhibition, 48 h
Activity calls are given as the source filed them. No stated cut-off is given here; in the data, active = GI50 up to about 1.1 µM and inactive = higher.
Would you mind answering with one of these outcomes? active, inactive

Use the examples below as a reference point.
O=c1cc(N2CCCC2)[nH]c(=O)n1-c1cccc(Cl)c1 :: inactive
Oc1c(Br)c(-c2ccccc2)nc2ccccc12 :: inactive
CCN(CCO)CCNc1ccc(C)c2sc3ccccc3c(=O)c12 :: inactive
Cc1c(O)c(OC2OC(CO)C(O)C(O)C2O)cc2c1CC[C@@H]1C2(C)C(=O)C[C@]2(C)[C@@H]([C@@](C)(O)C3CCC(C)(C)O3)[C@H](O)C[C@@]12C (stereo partly drawn) :: inactive
Cc1cccc2c1Oc1cc(Cl)ccc1C2NC(=O)CCN1CCOCC1 (stereo not drawn) :: inactive

Which outcome did this test record for the compound COc1cc(C2c3cc4c(cc3OC(NNc3ccccc3)C2C)OCO4)cc(OC)c1O (stereo not drawn) ?
active

Moving on to the next compound: O=C1CC(c2cccc(Br)c2)n2cccc21 (stereo not drawn)
inactive

Next entry: CN(C)c1ccc(/C=N/n2c(-c3ccccc3)nc3ccccc3c2=O)cc1
inactive

----------
test system: OVCAR-8; experiment: NCI tumour cell line growth inhibition, 48 h
Calls of active or inactive are those of the source. Cut-off read from the data, not from the text of the source: active = GI50 up to about 1.1 µM and inactive = higher.
Valid outcomes are listed here; reply with one: active, inactive

Given O=C(O)c1c2c(c(C(=O)O)c3ccccc13)-c1ccccc1-2 , state the outcome it received in this test.
inactive

Try Cc1nc(=O)[nH]c2c1C(=O)N(C(C)C)C(NC(C)C)S2 (centres undefined) next.
inactive

Try CC(O)(C#N)CC(O)(C(F)(F)Cl)C(F)(F)Cl (centres undefined) next.
inactive

What do you have for Cc1cc(NC(=O)C(=O)Cc2nc3ccccc3s2)ccc1Cl ?
inactive

Param item: O=C1CSC2(CC(/C=C/c3ccccc3Br)=NN2c2cccc(S(=O)(=O)O)c2)N1c1nc2ccccc2s1 (centres undefined)
inactive

Cool, now O=C1CC(c2ccccc2)NCN1 (centres undefined)
inactive

Please give the result for CC/C=C/c1cc2c(c3[nH]ccc13)[C@@H](C)CC2C.CC/C=C/c1cc2cc[nH]c2c2c1C(C)C[C@@H]2C.CCc1cc2c(c3[nH]ccc13)[C@@H](C)CC2C (some centres undefined) too.
inactive

Same again, this time with Cc1ccc(-c2nc3c(C(=O)NCCN(C)C)cccc3[nH]2)cc1
inactive
